Quick reference: ELISA signal of the listed items.
Target: T1, His-tagged P3028 (human, not fully specified)
T1 construct: the tag is put first after 'PGE73=His-tag-P3028'; also called PGE73; not shown: His-tag
T1 peptide: {His‑tag}-VFDEFKPLVEEPQNLIK
Assay: chip ELISA
No end group written: not given here.
Simply state the number, no unit and no words.

| binder | ELISA signal |
| --- | --- |
| KKLDTFMVKLSLFTER [P28R F7M] | 712 |
| KKLDTFFVKLSLRTER [P28R F13R] | 502 |
| KKLDTFFVKLSLVTER [P28R F13V] | 446 |
| YKLDTFFVKLSLFTER [P28R K1Y] | 315 |
| RKLDTFFVKLSLFTER [P28R K1R] | 523 |

query: Looking for the measured ELISA signal of KKLDTFFVKLSLFTRR [P28R E15R] , can you help?
result: 237

query: Fill in: ELISA signal of KKLDTFFWKLSLFTER [P28R V8W] is ___
result: 228
